Subject of test: Chk1 (Homo sapiens)
Construct: purchased Upstate Biotechnology
Sequence (O14757 1-476): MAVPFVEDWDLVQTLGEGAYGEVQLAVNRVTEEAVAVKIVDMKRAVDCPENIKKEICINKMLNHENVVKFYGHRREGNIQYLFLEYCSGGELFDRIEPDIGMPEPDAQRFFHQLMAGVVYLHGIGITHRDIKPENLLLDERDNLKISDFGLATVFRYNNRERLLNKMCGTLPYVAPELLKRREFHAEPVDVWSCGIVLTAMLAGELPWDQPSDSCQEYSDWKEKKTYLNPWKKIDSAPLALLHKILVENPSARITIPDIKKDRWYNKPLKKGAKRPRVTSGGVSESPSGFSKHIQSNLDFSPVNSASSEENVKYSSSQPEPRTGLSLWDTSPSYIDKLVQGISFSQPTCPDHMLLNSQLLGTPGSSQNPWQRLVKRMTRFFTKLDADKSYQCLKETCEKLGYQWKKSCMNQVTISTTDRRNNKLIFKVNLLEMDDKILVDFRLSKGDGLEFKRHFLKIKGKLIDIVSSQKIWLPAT
Assay summary: Chk1 kinase assay: incorporation of γ-33P ATP into immobilized myelin basic protein
Type: biochemical
Condition context: Table 11, Chk1 only; class symbols A-D; read-out: Chk1 IC50
pIC50: −log10 of the molar value.
Please respond with reported pIC50 for every item in the list.

> print(dat)
                            chemical.smiles  experimental.result
1  Nc1ncc(-c2cccc(C(=O)NC3CCCC3)c2)nc1C(=O)N[C@H]1CCCNC1         6.00 to 7.30

# batch: return pIC50 for each of the 7 molecules below
1. Nc1ncc(-c2cccc(CNS(=O)(=O)c3ccc4cccnc4c3)c2)nc1C(=O)N[C@H]1CCCNC1
2. Nc1ncc(-c2cccc(CNS(=O)(=O)c3ccccc3C(F)(F)F)c2)nc1C(=O)N[C@H]1CCCNC1
3. Nc1ncc(-c2cccc(C(=O)NCc3cc(Cl)cc(Cl)c3)c2)nc1C(=O)N[C@H]1CCCNC1
4. Nc1ncc(-c2cccc(C(=O)NCc3c(F)cccc3F)c2)nc1C(=O)N[C@H]1CCCNC1
5. Nc1ncc(-c2cccc(C(=O)NCc3ccc(F)cc3F)c2)nc1C(=O)N[C@H]1CCCNC1
6. Nc1ncc(-c2cccc(C(=O)N[C@H]3c4ccccc4C[C@@H]3O)c2)nc1C(=O)N[C@H]1CCCCN(Cc2ccccc2)C1
7. Nc1ncc(-c2cccc(CNC(=O)COc3ccc(OC(F)(F)F)cc3)c2)nc1C(=O)N[C@H]1CCCNC1

["6.00 to 7.30", "6.00 to 7.30", "> 7.30", "> 7.30", "> 7.30", "5.00 to 6.00", "> 7.30"]

# batch: return pIC50 for each of the 3 molecules below
1. Nc1ncc(-c2cccc(C(=O)NCc3c(F)cccc3F)c2)nc1-c1nc([C@H]2CCCNC2)n[nH]1
2. Nc1ncc(-c2cccc(CNS(=O)(=O)c3ccc(C(F)(F)F)cc3)c2)nc1C(=O)N[C@H]1CCCNC1
3. Nc1ncc(-c2cccc(C(=O)NCc3ccccc3)c2)nc1C(=O)N[C@H]1CCCNC1

1. 6.00 to 7.30
2. 6.00 to 7.30
3. > 7.30

====

Subject of test: Chk1 (Homo sapiens, UniProt O14757)
Construct: purchased Upstate Biotechnology
Sequence (O14757 1-476): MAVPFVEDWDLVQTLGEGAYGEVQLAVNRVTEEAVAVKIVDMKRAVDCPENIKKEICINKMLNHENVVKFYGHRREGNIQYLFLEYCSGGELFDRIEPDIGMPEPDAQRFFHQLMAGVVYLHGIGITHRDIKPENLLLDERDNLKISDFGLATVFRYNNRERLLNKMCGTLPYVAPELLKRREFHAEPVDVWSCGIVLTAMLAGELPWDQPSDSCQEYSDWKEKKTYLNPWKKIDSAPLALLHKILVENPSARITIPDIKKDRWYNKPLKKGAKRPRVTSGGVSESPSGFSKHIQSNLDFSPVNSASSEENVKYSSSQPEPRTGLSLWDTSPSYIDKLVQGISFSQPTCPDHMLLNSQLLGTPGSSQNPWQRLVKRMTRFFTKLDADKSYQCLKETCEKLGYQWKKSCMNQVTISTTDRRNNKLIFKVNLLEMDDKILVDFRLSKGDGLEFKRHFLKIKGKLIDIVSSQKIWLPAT
Assay summary: Chk1 kinase assay: incorporation of γ-33P ATP into immobilized myelin basic protein
Format: biochemical
Condition context: Table 11; Chk1 only; read-out: Chk1 IC50
Please respond with reported IC50 for every item in the list.

In the examples that follow, each entry is paired with its recorded IC50.
> print(dat)
                                   molecule  experimental.result
1  CC(C)(C)OC(=O)N1CC[C@@H](CNC(=O)c2nc(-c3cccc(C(=O)N[C@H]4CCc5ccccc54)c3)cnc2N)C1              ≥ 10 µM
2  CC(C)(C)OC(=O)NC1CCN(C(=O)c2nc(-c3cccc(C(=O)NCc4ccccc4)c3)cnc2N)CC1              ≥ 10 µM
3    CNC(=O)c1nc(-c2cccc(CNC3CCCC3)c2)cnc1N         0.05 to 1 µM
4  Nc1ncc(-c2cccc(C(=O)NCc3ccccc3)c2)nc1-c1nc(-c2ccccc2)n(-c2ccccc2)n1              ≥ 10 µM
5  CC(=O)NCCCNC(=O)c1nc(-c2cccc(C(=O)NCc3ccccc3)c2)cnc1N           1 to 10 µM

# batch: return IC50 for each of the 2 molecules below
1. CNC(=O)c1nc(-c2cc(C(=O)OC)cc(C(=O)OC)c2)cnc1N
2. CC(C)(C)OC(=O)N1CC[C@H](NC(=O)c2nc(-c3cccc(C(=O)NC4CCOc5ccccc54)c3)cnc2N)C1 (stereo partly shown)

1: 1 to 10 µM; 2: 1 to 10 µM

# batch: return IC50 for each of the 3 molecules below
1. CN(C)c1nccc(-c2nc(-c3cccc(C(=O)NCc4ccccc4)c3)cnc2N)n1
2. CNC(=O)c1nc(-c2cccc(CNC(CN3CCCC3)c3ccccc3)c2)cnc1N (stereo not shown)
3. Nc1ncc(-c2cccc(C(=O)NCc3ccccc3)c2)nc1C(=O)NCCCNS(=O)(=O)c1cccc2cccnc12

1. ≥ 10 µM
2. 0.05 to 1 µM
3. ≥ 10 µM

Recorded values, source patent US7704995B2.
